- ASSAY: protein stability index of a GFP-peptide fusion (yeast GPS) (PSI 1-4); higher = more stable; sorted into four equal gates, so the index is relative within each strain
- MEASUREMENT PARAMETERS: ubr1∆
Given measured protein stability index, output yes if it is greater than or equal to 3 and no if not.

Request: For this sequence, is measured protein stability index 3 or higher? AIQMVDPASFYLFDEID [SMC3]
Result: no

Request: For this sequence, is measured protein stability index 3 or higher? RRRLLGPAAAKPMAFSN [MTR3]
Result: yes

Request: For this sequence, is measured protein stability index 3 or higher? TSNWEIYKPLLFEIVSN [SRB8]
Result: no

Request: For this sequence, is measured protein stability index 3 or higher? PTFVEFILIPLYKIFSY [SNU114]
Result: no

Request: For this sequence, is measured protein stability index 3 or higher? WDLLQSGSQNISEFDSF [RPN12]
Result: yes

Request: For this sequence, is measured protein stability index 3 or higher? KARSPGIAKPNAIQTEV [SIR4]
Result: yes

Request: For this sequence, is measured protein stability index 3 or higher? DQGNGWLYVYETPNQDA [RPN6]
Result: no

Request: For this sequence, is measured protein stability index 3 or higher? LEKLIFDMTNHYNDSQQ [SRB8]
Result: no

Request: For this sequence, is measured protein stability index 3 or higher? AIQKKDNKDKEGNAGGD [YOR098C/NUP1]
Result: yes

Request: For this sequence, is measured protein stability index 3 or higher? GSIGSRKYSFNYSSLPS [YAR002W/NUP60]
Result: no

Request: For this sequence, is measured protein stability index 3 or higher? LMRQALAIKDSKKRFAA [RPO21]
Result: no

Request: For this sequence, is measured protein stability index 3 or higher? DDYSNEDNEMLEDLFSY [YJR042W/NUP85]
Result: no

Request: For this sequence, is measured protein stability index 3 or higher? LVKALEDIMVHYDNTTR [RPO21]
Result: no

Request: For this sequence, is measured protein stability index 3 or higher? NFKSYRGVTKVGFGESN [SMC1]
Result: no

Request: For this sequence, is measured protein stability index 3 or higher? RKVRTKKWKKYWQYKAG [SWP82]
Result: no

Request: For this sequence, is measured protein stability index 3 or higher? LNGILADEMGLGKTIQT [SNF2]
Result: no

Request: For this sequence, is measured protein stability index 3 or higher? IEKLTDGHLRAPLKHGV [BRR2]
Result: no
